- TESTED_ON: T1, biotinylated goat anti-human kappa light chain
- T1 construct: Positive control of the ELISA
- PROTOCOL_DESCRIPTION: ELISA; positive control; further: test concentration or dose not given here
PROPERTY: optical density
Param answer (str): number followed by unit.

Some solved entries appear below for comparison.
BINDER | RECORDED_RESULT
373_B08 (antibody, V domains shown, VH/VL only) VH: EVQLLESGGGLVQPGGSLRLSCAASGFTFDSYSMNWVRQAPGKGLEWVANINYNSGYKGYADSVKGRFTISRDNSKNTLYLQMNSLRAEDTAVYYCARSATWHDTHLDYWGQGTLVTVSS VL: DIQMTQSPSSLSASVGDRVTITCRASQSILTYLNWYQQKPGKAPKLVIYAATSLASGVPSRFSGSGSGTDFTLTISSLQPEDFATYYCQQSYENPLTFGGGTKVEIK | 3.22 OD
367_G07 (antibody, V domains shown, VH/VL only) VH: EVQLLESGGGLVQPGGSLRLSCAASGFTFDSYSMNWVRQAPGKGLEWVANINYNGGYTGYADSVKGRFTISRDNSKNTLYLQMNSLRAEDTAVYYCARSATWHDTHLDYWGQGTLVTVSS VL: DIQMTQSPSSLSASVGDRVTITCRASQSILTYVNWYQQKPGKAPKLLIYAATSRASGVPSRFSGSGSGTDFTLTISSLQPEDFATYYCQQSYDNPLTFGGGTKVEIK | 3.29 OD
374_C08 (antibody, V domains shown, VH/VL only) VH: EVQLLESGGGLVQPGGSLRLSCAASGFTFDSYGMNWVRQAPGKGLEWVSGINYNSGYKSYADSVKGRFTISRDNSKNTLYLQMNSLRAEDTAVYYCARSATWHDTALDYWGQGTLVTVSS VL: DIQMTQSPSSLSASVGDRVTITCRASQSILSYVNWYQQKPGKAPKLLIYAVTSRASGVPSRFSGSGSGTDFTLTISSLQPEDFATYYCQQSYDSPLTFGGGTKVEIK | 3.18 OD
369_D11 (antibody, V domains shown, VH/VL only) VH: EVQLLESGGGLVQPGGSLRLSCAASGFTFSSYGMHWVRQAPGKGLEWVASINYNGGYTSYADSVKGRFTISRDNSKNTLYLQMNSLRAEDTAVYYCARSATWHDTHLDYWGQGTLVTVSS VL: DIQMTQSPSSLSASVGDRVTITCRASQSILTYLNWYQQKPGKAPKLVIYAATSLASGVPSRFSGSGSGTDFTLTISSLQPEDFATYYCQQSDELPLTFGGGTKVEIK | 3.45 OD

Now consider the entry below.
Query: Fill in: optical density of 374_F10 (antibody, V domains shown, VH/VL only) VH: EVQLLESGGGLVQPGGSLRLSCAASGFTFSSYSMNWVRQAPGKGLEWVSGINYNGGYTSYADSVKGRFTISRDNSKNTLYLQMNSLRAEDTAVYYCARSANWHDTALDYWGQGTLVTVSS VL: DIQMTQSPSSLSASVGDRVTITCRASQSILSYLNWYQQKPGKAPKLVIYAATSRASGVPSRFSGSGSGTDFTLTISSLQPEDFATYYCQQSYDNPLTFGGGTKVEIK is ___
Response: 3.28 OD
